Overview of reported Morningglory plant response rating across a group of compounds:
System: morningglory
test-summary: Test B pre/postemergence morningglory
Type: in vivo, Ipomoea hederacea
condition-info: Preemergence, Rate 250 g/ha; scale of 0 to 10 where 0 is no effect and 10 is complete control
I only need the number, thanks.

compound=Cc1nsc(Cl)c1Cn1c(=O)on(C(=O)N(c2ccc(F)cc2)C(C)C)c1=O recorded_number=0
compound=Cc1c(-n2c(=O)on(C(=O)N(c3ccc(F)cc3F)C(C)C)c2=O)ccc2ccccc12 recorded_number=0
compound="CC(C)N(C(=O)n1oc(=O)n(C2CCCCO2)c1=O)c1ccc(F)cc1 (centres unmarked)" recorded_number=0
compound=CC(C)N(C(=O)n1oc(=O)n(CC2(C)COC2)c1=O)c1ccc(F)cc1 recorded_number=7
compound=CC(C)N(C(=O)n1oc(=O)n(C2CCCC2)c1=O)c1ccc(F)cc1F recorded_number=1
compound=Cc1c(-n2c(=O)on(C(=O)N(c3ccc(F)cc3)C(C)C)c2=O)ccc2ccccc12 recorded_number=0
compound=CC(C)N(C(=O)n1oc(=O)n(CCC(F)=C(F)F)c1=O)c1ccc(F)cc1 recorded_number=0

From here, focus on the item given below.
INPUT: API: value(readout=Morningglory plant response rating, system=morningglory) for record "CCN(CC)C(=O)n1oc(=O)n(C2CC2)c1=O"
OUTPUT: 0
